Cited source for all entries: the supplement of paper PMC9170038

System: MS2 coat protein
protocol summary: apparent KD of MS2 coat protein; designed switch direction (-1 OFF switch, 1 ON switch): 1; higher = weaker reporter binding
particulars: input ligand: none
Think of 80 nM as a floor: if apparent KD of MS2 coat protein stands on it or above, it is criterion met; beneath it, criterion not met.

sequence entry	label value
GCUCGAUGAGCGUUUUACAUGAGGAUCACCCAUGUUCGUGGGCAGGAUAUUUACGUGCGGAGUGUAGAGAAGGGCCCAUCGAGC [SameState NG3 #68] (Eterna round: R96, puzzle: Same State NG 3)	criterion met
GCAGGACGAUAAUAUAUCUCACAUGAGGAUCACCCAUGUCGUGAGGAUAUGGAUCCUAAUUGGAUCCAGAAGGCAUGGUCCUGC [Fiskers NG3ss - 31] (Eterna round: R96, puzzle: Same State NG 3)	criterion not met
CUUUUUAAUGCAGGAUAUGAUCAACAUGAGGAUCACCCAUGUGGUGUUGUGAGUAAGGAGAGUGAUCAGAAGGGCAUCUUUUCA [SS-NG2-LRO04] (Eterna round: R96, puzzle: Same State NG 2)	criterion met
UGAAUGAUGUUAGGAUAUACAUGAGGAAUCCUCGUAGAAGGAACAUGACAUGAGGAUCACCCAUGUAGCGCUCCGUAGAGCGCA [JL SSNG1 1.19] (Eterna round: R96, puzzle: Same State NG 1)	criterion met
